Test system: Phytophthora infestans
Type: in vivo
setup_conditions: potato, 2000 ppm, 8 days after inoculation
readout_kind: Control Efficacy %
Remember to quote the unit after the number.

For the compound shown here, CC(CC(=O)OCCCl)NC(=O)c1ccccc1 (racemic) [Example 11] , give the reported Control Efficacy %.
70%

May I ask what Control Efficacy % has been recorded for CCCC(C)OC(=O)CC(C)NS(=O)(=O)c1ccccc1 (stereo not shown) [Example 9] ?
62%

Report Control Efficacy % for CCCCCCCCOC(=O)CC(C)NS(=O)(=O)c1ccccc1 (racemic) [Example 7] please.
77%

What does the record list as Control Efficacy % for CCC(C)OC(=O)CC(C)NS(=O)(=O)c1ccccc1 (stereo not shown) [Example 8] ?
50%

====

Would you kindly list Control efficacy (%) 7d for each of these compounds?
System: Phytophthora infestans
Format: in vivo
setup_conditions: Tomato, 500 ppm, 7 days after inoculation
Respond with the bare value in %.

Data request, read-out Control efficacy (%) 7d, for CCCCC(C)OC(=O)CC(C)NC(=O)c1ccccc1NC (stereo not drawn)
75

For the compound CC(CC(=O)OC1CCCCC1)NS(=O)(=O)c1ccccc1 (stereo not drawn) , what Control efficacy (%) 7d is on record?
75

Entry under review: CCCOC(=O)CC(C)NS(=O)(=O)c1ccc(Cl)cc1 (stereo not drawn) . Reported Control efficacy (%) 7d?
81

Consider the compound Cc1ccc(C(=O)NC(C)CC(=O)OCCC(Cl)(Cl)Cl)cc1 (stereo not drawn) and give its measured Control efficacy (%) 7d.
81

Given CC(CC(=O)OC1CCCCC1)NC(=O)c1ccccc1 (stereo not drawn) , state its recorded Control efficacy (%) 7d.
78

Control efficacy (%) 7d for Cc1ccc(C(=O)NC(C)CC(=O)OC2CCCCC2)cc1 (stereo not drawn) ?
78

====

Test system: Phytophthora infestans
Assay type: in vivo
setup_conditions: potato, 2000 ppm, 4 days after inoculation
readout_kind: Control Efficacy % (%)
Quick reminder: number only, in %, skip the unit.

Any idea what Control Efficacy % was measured for CCCC(C)OC(=O)CC(C)NS(=O)(=O)c1ccccc1 (stereo not shown) ?
97

What does the record list as Control Efficacy % for CCC(C)OC(=O)CC(C)NS(=O)(=O)c1ccccc1 (stereo not shown) ?
92

# query: Control Efficacy % of entry CC(CC(=O)OCCCl)NC(=O)c1ccccc1 (racemic)
92

For CCCCCCCCOC(=O)CC(C)NS(=O)(=O)c1ccccc1 (racemic) , what is its reported Control Efficacy %?
100

====

Please go through the items and note down their Control efficacy % 7 days.
Tested on: Pseudoperonospora cubensis
measurement_description: Downy mildew in melon (Table 7)
setup_conditions: 500 ppm, 7 days after inoculation
Write it as a number; the unit % goes unstated.

Given the entry CC(CC(=O)OCCC(Cl)(Cl)Cl)NS(=O)(=O)c1ccccc1 (centres unmarked) [compound 19] , report its measured Control efficacy % 7 days.
83

I would be grateful if you could share the reported Control efficacy % 7 days for CC(CC(=O)OCCC(Cl)(Cl)Cl)NC(=O)c1ccccc1 (centres unmarked) [compound 29] .
70

// lookup Control efficacy % 7 days for CCCCCCCOC(=O)CC(C)NS(=O)(=O)c1ccc(C)cc1 (centres unmarked) [compound 34]
70

Requested field: Control efficacy % 7 days. Item: CCCCC(C)OC(=O)CC(C)NC(=O)c1ccc(Cl)cc1 (centres unmarked) [compound 18]
87

Data request, read-out Control efficacy % 7 days, for CC(CC(=O)OCCCc1ccccc1)NS(=O)(=O)c1ccccc1 (centres unmarked) [compound 17]
87

Could you share which Control efficacy % 7 days value was measured for CCCCC(C)OC(=O)CC(C)NC(=O)c1cc(C)cc(C)c1 (centres unmarked) [compound 23] ?
73

Given the compound CCCCCCCOC(=O)CC(C)NC(=O)c1ccc(OC)cc1 (centres unmarked) [compound 12] , what is its reported Control efficacy % 7 days?
100

Reported Control efficacy % 7 days for CCCCCCCOC(=O)CC(C)NC(=O)c1ccc(C(C)(C)C)cc1 (centres unmarked) [compound 15] : what is it?
97

Need Control efficacy % 7 days of CC(CC(=O)OCCCc1ccccc1)NS(=O)(=O)c1ccccc1 (centres unmarked) [compound 51] , thanks.
87

Can you share its Control efficacy % 7 days? I mean this compound: CCCCCCCOC(=O)CC(C)NC(=O)c1ccccc1C (centres unmarked) [compound 32]
77

Give its Control efficacy % 7 days value. Item: CCCC(C)COC(=O)CC(C)NC(=O)c1c(Cl)cccc1Cl (centres unmarked) [compound 25]
80

Value lookup for Control efficacy % 7 days; key = CCCCCCCOC(=O)CC(C)NC(=O)c1cccc(C)c1 (centres unmarked) [compound 22]
83

So what's the measured Control efficacy % 7 days for this one? Cc1ccc(S(=O)(=O)NC(C)CC(=O)OCCBr)cc1 (centres unmarked) [compound 33]
75

Recorded Control efficacy % 7 days of Cc1cc(C)cc(C(=O)NC(C)CC(=O)OCCCl)c1 (centres unmarked) [compound 27] , please.
73

====

For each of the compounds below, state its Control efficacy % 10d.
System: Plasmopara viticola
measurement_description: Downy mildew in grapes (Table 9)
Type: in vivo
setup_conditions: 500 ppm, 10 days after inoculation
Give the number; % is assumed, so skip it.

What does the record list as Control efficacy % 10d for COc1ccc(C(=O)NC(C)CC(=O)OCCCl)cc1 (centres unmarked) ?
91

# query: Control efficacy % 10d of entry CC(CC(=O)OCCC(Cl)(Cl)Cl)NS(=O)(=O)c1ccccc1 (centres unmarked)
94

For Cc1cc(C)cc(C(=O)NC(C)CC(=O)OCCCl)c1 (centres unmarked) , what is its reported Control efficacy % 10d?
97

Give its Control efficacy % 10d value. Item: CCCCCCCOC(=O)CC(C)NC(=O)c1ccc(C(C)(C)C)cc1 (centres unmarked)
97

Could you share which Control efficacy % 10d value was measured for Cc1ccc(C(=O)NC(C)CC(=O)OCCCc2ccccc2)cc1 (centres unmarked) ?
99

Need Control efficacy % 10d, item COCC(C)OC(=O)CC(C)NS(=O)(=O)c1ccccc1 (centres unmarked)
82

Reported Control efficacy % 10d for CCCCCCCOC(=O)CC(C)NC(=O)c1c(F)cccc1F (centres unmarked) : what is it?
100

What does the data say about its Control efficacy % 10d? Entry: CC(CC(=O)OCCCc1ccccc1)NS(=O)(=O)c1ccccc1 (centres unmarked) [compound 17]
97

Need Control efficacy % 10d of CC(CC(=O)OCCCc1ccccc1)NS(=O)(=O)c1ccccc1 (centres unmarked) [compound 51] , thanks.
97

What Control efficacy % 10d value was documented for this compound, CCCCC(C)OC(=O)CC(C)NC(=O)c1ccc(Cl)cc1 (centres unmarked) ?
91

Please give the measured Control efficacy % 10d for this compound: CCCCCCCOC(=O)CC(C)NC(=O)c1ccc(Cl)cc1 (centres unmarked)
91

Entry under review: CCCCC(C)OC(=O)CC(C)NC(=O)c1cc(C)cc(C)c1 (centres unmarked) . Reported Control efficacy % 10d?
100

Any idea what its Control efficacy % 10d is? The compound is CCC(C)OC(=O)CC(C)NS(=O)(=O)c1ccc(C)cc1 (centres unmarked)
100

Item under review: CC(CC(=O)OCCC(Cl)(Cl)Cl)NC(=O)c1ccccc1 (centres unmarked) . Reported Control efficacy % 10d?
91

Name the reported Control efficacy % 10d value associated with the compound CCCCC(C)OC(=O)CC(C)NS(=O)(=O)c1ccc(C)cc1 (centres unmarked)
100

Any idea what its Control efficacy % 10d is? The compound is CCCCCCCOC(=O)CC(C)NC(=O)c1c(Cl)cccc1Cl (centres unmarked)
100

Any idea what its Control efficacy % 10d is? The compound is CCCC(C)COC(=O)CC(C)NC(=O)c1c(Cl)cccc1Cl (centres unmarked)
100
